# target_desc: Yeast α-glucosidase enzyme
# assay_name: Kinetic study of α-glucosidase inhibition (Lineweaver-Burk and secondary plots)
# Assay type: biochemical
# study_conditions: from secondary plot; read-out: α-Glucosidase inhibition constant (Ki)
measured_endpoint: pKi
Notebook: values listed as pKi are -log10 of the concentration (mol/L).

Some compounds with known pKi results, for comparison:
{"columns": ["compound", "pKi"],
 "data": [
  ["COc1cc(O)c(C(=O)CC(c2ccccc2)c2c(O)cc3c(c2O)C(=O)CC(c2ccccc2)O3)c(O)c1 (stereo not drawn)", 5.14],
  ["CC(C)=CC[C@@H]1C(C)=CC[C@@H](c2ccccc2)[C@@H]1C(=O)c1c(O)cc(O)cc1O [Compound 7, Hydroxypanduratin A]", 5.39]
]}

Switching to the query record.
Measured pKi for this entry C[C@H]1O[C@H](O[C@H]2[C@H](O)[C@@H](O)[C@@H](O[C@H]3[C@H](O)[C@@H](O)C(O)O[C@@H]3CO)O[C@@H]2CO)[C@H](O)[C@@H](O)[C@@H]1N[C@H]1C=C(CO)[C@@H](O)[C@H](O)[C@H]1O (stereo partly drawn) [Acarbose, reference compound] on Yeast α-glucosidase enzyme: 3.78

====

# target_desc: lipase from porcine pancreas (Type II) (Sus scrofa, UniProt P00591)
# Construct: lipase from porcine pancreas (Type II); purchased Sigma Chemical, Inc. (St. Louis, MO, USA); host or cells: porcine pancreas
# Sequence (P00591 1-450): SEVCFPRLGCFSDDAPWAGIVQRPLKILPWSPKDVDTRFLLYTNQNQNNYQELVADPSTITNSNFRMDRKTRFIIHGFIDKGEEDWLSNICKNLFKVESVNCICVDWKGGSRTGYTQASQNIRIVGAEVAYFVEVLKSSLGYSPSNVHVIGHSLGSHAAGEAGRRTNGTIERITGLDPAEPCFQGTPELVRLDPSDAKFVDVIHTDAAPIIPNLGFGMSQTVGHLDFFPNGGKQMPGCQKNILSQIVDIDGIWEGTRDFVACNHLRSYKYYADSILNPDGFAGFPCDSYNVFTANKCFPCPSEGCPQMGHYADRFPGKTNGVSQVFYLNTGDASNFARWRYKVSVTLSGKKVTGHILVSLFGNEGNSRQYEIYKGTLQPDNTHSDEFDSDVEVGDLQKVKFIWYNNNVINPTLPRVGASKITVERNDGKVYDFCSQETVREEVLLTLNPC
# assay_name: Lipase inhibitory activity assay (4MUO substrate)
# Type: biochemical
# Protocol: Optical rotations were obtained with a Perkin-Elmer 341 polarimeter (Boston, MA, USA). UV spectra were measured on a Milton Roy Spectronic 300 Array spectrophotometer, and IR was recorded on a Perkin-Elmer FT-IR 1760x spectrophotometer (Boston, MA, USA). High-resolution electrospray ionization mass spectra (HR-ESI-MS) were recorded with a Bruker micro TOF mass spectrometer (Billerica, MA, USA). NMR spectra were obtained with a Bruker Avance DPX-300 FT-NMR spectrometer (Billerica, MA, USA). […]
measured_endpoint: inhibition at 20 µg/mL
Answer as a quantity: numeral, then unit.

{"columns": ["molecule", "measured_endpoint", "result"],
 "data": [
  ["O=C1C[C@@H](c2ccccc2)Oc2cc(O)cc(O)c21 [Compound 5, Pinocembrin]", "inhibition at 20 µg/mL", "3.7%"],
  ["COc1cc(O)cc2c1C(=O)CC(c1ccc(O)cc1)O2 (stereo not drawn) [Compound 15, 4′-7-Dihydroxy-5-methoxyflavanone]", "inhibition at 20 µg/mL", "44.7%"],
  ["CC(C)=CC[C@@H]1C(C)=CC[C@@H](c2ccccc2)[C@@H]1C(=O)c1c(O)cc(O)cc1O [Compound 7, Hydroxypanduratin A]", "inhibition at 20 µg/mL", "49.3%"],
  ["COc1cc(O)c(C(=O)CC(c2ccccc2)c2c(O)cc3c(c2O)C(=O)CC(c2ccccc2)O3)c(O)c1 (stereo not drawn) [Compound 9, rotundaflavanochalcone]", "inhibition at 20 µg/mL", "69.1%"],
  ["COc1cc(O)c(C(=O)[C@@H]2[C@H](CC=C(C)C)C(C)=CC[C@H]2c2ccccc2)c(O)c1 [Compound 3, Panduratin A]", "inhibition at 20 µg/mL", "72.3%"]
]}

Switching to the query record.
Entry under test: COc1cc(O)cc(O)c1C(=O)C1C(CC=C(C)C)C(C)=CCC1c1ccccc1 (stereo not drawn) [Compound 4, Isopanduratin A] . Its inhibition at 20 µg/mL was 75.2%

====

# target_desc: lipase from porcine pancreas (Type II) (Sus scrofa, UniProt P00591)
# Construct: lipase from porcine pancreas (Type II); purchased Sigma Chemical, Inc. (St. Louis, MO, USA); host or cells: porcine pancreas
# Sequence (P00591 1-450): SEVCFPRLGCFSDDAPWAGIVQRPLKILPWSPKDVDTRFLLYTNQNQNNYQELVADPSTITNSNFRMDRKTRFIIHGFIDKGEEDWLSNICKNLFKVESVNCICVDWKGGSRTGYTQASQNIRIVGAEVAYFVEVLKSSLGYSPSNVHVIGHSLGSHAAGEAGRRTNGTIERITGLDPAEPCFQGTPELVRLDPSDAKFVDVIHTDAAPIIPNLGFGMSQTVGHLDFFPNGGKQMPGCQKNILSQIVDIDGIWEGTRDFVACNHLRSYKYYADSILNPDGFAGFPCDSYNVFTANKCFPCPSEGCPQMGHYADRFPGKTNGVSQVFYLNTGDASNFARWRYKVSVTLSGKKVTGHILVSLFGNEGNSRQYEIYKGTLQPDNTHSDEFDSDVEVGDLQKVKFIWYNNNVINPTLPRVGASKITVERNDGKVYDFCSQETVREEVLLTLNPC
# assay_name: Lipase inhibitory activity assay (4MUO substrate)
# Type: biochemical
measured_endpoint: inhibition at 20 µg/mL (%)
# number only, unit % dropped from output

Some compounds with known inhibition at 20 µg/mL results, for comparison:
{"columns": ["compound", "inhibition at 20 µg/mL, %"],
 "data": [
  ["COc1cc(O)c2c(c1)O[C@H](c1ccccc1)CC2=O", 7.9],
  ["COc1cc(O)cc(O)c1C(=O)/C=C/c1ccc(O)cc1 [Compound 14, 4,4′,6′-trihydroxy-2′-methoxychalcone]", 70.9],
  ["COc1cc(/C=C/c2ccccc2)oc(=O)c1 [Compound 8, 5,6-Dehydrokawain]", 33.7]
]}

Measured inhibition at 20 µg/mL for this entry COc1cc(O)cc(O)c1C(=O)CC(c1ccccc1)c1c(O)cc2c(c1O)C(=O)CC(c1ccccc1)O2 (stereo not shown) on lipase from porcine pancreas (Type II) (Sus scrofa, UniProt P00591): 67.8

====

The following compounds are shown together with reported α-Glucosidase % Inhibition (at 20 µg/mL) values.
# Tested on: Yeast α-glucosidase enzyme
# assay_name: α-Glucosidase inhibitory activity assay (PNPG hydrolysis)
# Format: biochemical
# study_conditions: at 20 µg/mL
# number only, unit % dropped from output

Some compounds with known α-Glucosidase % Inhibition (at 20 µg/mL) results, for comparison:
{"columns": ["compound", "target_desc", "α-Glucosidase % Inhibition (at 20 µg/mL) [%]"],
 "data": [
  ["CC(C)=CC[C@@H]1C(C)=CC[C@@H](c2ccccc2)[C@@H]1C(=O)c1c(O)cc(O)cc1O [Compound 7, Hydroxypanduratin A]", "Yeast α-glucosidase enzyme", 98.5],
  ["COc1cc(O)cc(O)c1C(=O)/C=C/c1ccccc1", "Yeast α-glucosidase enzyme", 19.7],
  ["CC(C)=CCC/C(C)=C/CO", "Yeast α-glucosidase enzyme", 9.6],
  ["O=C(CCc1ccccc1)c1c(O)cc(O)cc1O [Compound 10, 2′,4′,6′-Trihydroxydihydrochalcone]", "Yeast α-glucosidase enzyme", 88.1],
  ["COc1cc(O)cc(O)c1C(=O)C1C(CC=C(C)C)C(C)=CCC1c1ccccc1 (centres unmarked)", "Yeast α-glucosidase enzyme", 97.8],
  ["COc1cc(O)c2c(c1)O[C@H](c1ccccc1)CC2=O", "Yeast α-glucosidase enzyme", 10.0],
  ["COc1cc(/C=C/c2ccccc2)oc(=O)c1 [Compound 8, 5,6-Dehydrokawain]", "Yeast α-glucosidase enzyme", 9.5]
]}

Entry under test: COc1cc(O)cc(O)c1C(=O)CC(c1ccccc1)c1c(O)cc2c(c1O)C(=O)CC(c1ccccc1)O2 (centres unmarked) . Its α-Glucosidase % Inhibition (at 20 µg/mL) was 100.0

====

# target_desc: Yeast α-glucosidase enzyme
# assay_name: α-Glucosidase inhibitory activity assay (PNPG hydrolysis)
# Assay type: biochemical
measured_endpoint: pIC50
Notebook: values listed as pIC50 are -log10 of the concentration (mol/L).

Some compounds with known pIC50 results, for comparison:
{"columns": ["compound", "pIC50"],
 "data": [
  ["COc1cc(O)cc(O)c1C(=O)C1C(CC=C(C)C)C(C)=CCC1c1ccccc1 (centres unmarked) [Compound 4, Isopanduratin A]", 5.12],
  ["COc1cc(O)cc(O)c1C(=O)CC(c1ccccc1)c1c(O)cc2c(c1O)C(=O)CC(c1ccccc1)O2 (centres unmarked) [Compound 12, iso-rotundaflavanochalcone]", 5.47]
]}

Entry under test: CC(C)=CC[C@@H]1C(C)=CC[C@@H](c2ccccc2)[C@@H]1C(=O)c1c(O)cc(O)cc1O [Compound 7, Hydroxypanduratin A] . Its pIC50 was 5.34

Entry under test: O=C(CC(c1ccccc1)c1c(O)cc2c(c1O)C(=O)CC(c1ccccc1)O2)c1c(O)cc(O)cc1O (centres unmarked) [Compound 13, de-O-methyl rotundaflavanochalcone] . Its pIC50 was 5.89

Entry under test: C[C@H]1O[C@H](O[C@H]2[C@H](O)[C@@H](O)[C@@H](O[C@H]3[C@H](O)[C@@H](O)C(O)O[C@@H]3CO)O[C@@H]2CO)[C@H](O)[C@@H](O)[C@@H]1N[C@H]1C=C(CO)[C@@H](O)[C@H](O)[C@H]1O (some centres unmarked) [Acarbose, reference compound] . Its pIC50 was 2.94

Entry under test: COc1cc(O)c(C(=O)[C@@H]2[C@H](CC=C(C)C)C(C)=CC[C@H]2c2ccccc2)c(O)c1 [Compound 3, Panduratin A] . Its pIC50 was 4.90

Entry under test: COc1cc(O)c(C(=O)CC(c2ccccc2)c2c(O)cc3c(c2O)C(=O)CC(c2ccccc2)O3)c(O)c1 (centres unmarked) [Compound 9, rotundaflavanochalcone] . Its pIC50 was 5.62

Entry under test: O=C(CCc1ccccc1)c1c(O)cc(O)cc1O [Compound 10, 2′,4′,6′-Trihydroxydihydrochalcone] . Its pIC50 was 4.49
